test: Single-dose pharmacokinetics of IR paliperidone in subjects with moderate hepatic impairment vs normal hepatic function; format: in vivo, human; conditions: both sexes, human, plasma and urine, oral, 1 mg, healthy subjects (second value of '67.4 vs. 51.2'); read-out: Renal clearance
MEASUREMENT KIND: CL renal (mL/min)
Answers are plain numbers, in mL/min.

INPUT: // lookup CL renal for Cc1nc2n(c(=O)c1CCN1CCC(c3noc4cc(F)ccc34)CC1)CCCC2O (stereo not shown)
OUTPUT: 51.2

---

experiment: Single-dose pharmacokinetics of IR paliperidone in subjects with moderate hepatic impairment vs normal hepatic function; type: in vivo, human; details: both sexes, human, plasma and urine, oral, 1 mg, Hepatically-Impaired Subjects; Total; read-out: CLR
MEASUREMENT KIND: CL renal (mL/min)
Numbers only, in mL/min.

INPUT: // lookup CL renal for Cc1nc2n(c(=O)c1CCN1CCC(c3noc4cc(F)ccc34)CC1)CCCC2O (stereo not shown)
OUTPUT: 67.4

---

experiment: Single-dose pharmacokinetics of IR paliperidone in subjects with moderate hepatic impairment vs normal hepatic function; type: in vivo, human; settings: both sexes, human, plasma, oral, 1 mg, Hepatically-Impaired Subjects; Total
MEASUREMENT KIND: AUC(0-inf) (ng·h/mL)
Give bare numbers, in ng·h/mL.

INPUT: // lookup AUC(0-inf) for Cc1nc2n(c(=O)c1CCN1CCC(c3noc4cc(F)ccc34)CC1)CCCC2O (stereo not shown)
OUTPUT: 128

---

assay: clinical; set-up: species or system human; conditions: male, human, in vivo, CLR
MEASUREMENT KIND: CL renal (mL/min)
Numbers only, in mL/min.

INPUT: // lookup CL renal for Cc1nc2n(c(=O)c1CCN1CCC(c3noc4cc(F)ccc34)CC1)CCCC2O (stereo not shown)
OUTPUT: 53.1

---

assay: Single-dose pharmacokinetics of IR paliperidone in subjects with moderate hepatic impairment vs normal hepatic function; format: in vivo, human; conditions: both sexes, human, plasma, oral, 1 mg, Healthy Subjects; Unbound; read-out: tmax, median (range)
MEASUREMENT KIND: Tmax

INPUT: // lookup Tmax for Cc1nc2n(c(=O)c1CCN1CCC(c3noc4cc(F)ccc34)CC1)CCCC2O (stereo not shown) [Paliperidone, paliperidone]
OUTPUT: 1.25 h

---

assay: Single-dose pharmacokinetics of IR paliperidone in subjects with moderate hepatic impairment vs normal hepatic function; format: in vivo, human; details: both sexes, human, plasma, oral, 1 mg, Hepatically-Impaired Subjects; Total; read-out: t1/2 (terminal half-life) (converted)
MEASUREMENT KIND: half-life (h)
Answers are plain numbers, in h.

INPUT: // lookup half-life for Cc1nc2n(c(=O)c1CCN1CCC(c3noc4cc(F)ccc34)CC1)CCCC2O (stereo not shown)
OUTPUT: 26.5

---

assay: Single-dose pharmacokinetics of IR paliperidone in subjects with moderate hepatic impairment vs normal hepatic function; type: in vivo, human; details: both sexes, human, plasma, po, 1 mg, Healthy Subjects; Total; 1 mg IR oral solution
MEASUREMENT KIND: Cmax (ng/mL)
Give bare numbers, in ng/mL.

INPUT: // lookup Cmax for Cc1nc2n(c(=O)c1CCN1CCC(c3noc4cc(F)ccc34)CC1)CCCC2O (stereo not shown) [Paliperidone, paliperidone]
OUTPUT: 7.14

---

experiment: Single-dose pharmacokinetics of IR paliperidone in subjects with moderate hepatic impairment vs normal hepatic function; format: in vivo, human; conditions: both sexes, human, plasma, oral, 1 mg, Hepatically-Impaired Subjects; Total
MEASUREMENT KIND: Cmax (ng/mL)
Answers are plain numbers, in ng/mL.

INPUT: // lookup Cmax for Cc1nc2n(c(=O)c1CCN1CCC(c3noc4cc(F)ccc34)CC1)CCCC2O (stereo not shown) [Paliperidone, paliperidone]
OUTPUT: 4.57
